Target desc: T1, PTP1B phosphatase domain (residues 2-321) D181A/Q262A (human, UniProt P18031 2-321, D181A | Q262A)
T1 construct: Protein tyrosine phosphatase 1B, human, phosphatase domain, residues 2-321, D181A/Q262A; pPROEX vector; no cleavage of the His tag is told; also called PTP1B D181A/Q262A; PTP1B D/Q; source: E. coli BL21 (DE3), purified (nickel resin, size exclusion)
T1 sequence (looked up): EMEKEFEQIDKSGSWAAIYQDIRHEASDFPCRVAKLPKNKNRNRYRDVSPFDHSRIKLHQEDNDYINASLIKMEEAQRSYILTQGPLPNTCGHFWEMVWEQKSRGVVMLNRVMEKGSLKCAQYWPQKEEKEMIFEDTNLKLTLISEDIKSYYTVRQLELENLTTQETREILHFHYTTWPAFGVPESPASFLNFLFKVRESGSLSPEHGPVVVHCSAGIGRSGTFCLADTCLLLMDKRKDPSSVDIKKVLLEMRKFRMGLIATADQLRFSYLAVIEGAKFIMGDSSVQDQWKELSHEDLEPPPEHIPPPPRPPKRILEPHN
Experiment description: crystal structure; PTP1B D181A/Q262A co-crystallised with a 2-fold excess of bisphosphorylated peptide; the tyrosyl-peptide product and free phosphate are seen in the active site
Condition set: both partners purified
Square brackets hold non-standard residues; d marks the D form. Ends that are not written are not given here. pY = N[C@@H](Cc1ccc(OP(=O)(O)O)cc1)C(=O)O
Endpoint: binding result

>  <Binder>
LLPLDKD[pY][pY]VVREPGQ (printed as LLPLDKD[pY][pY]VVREPGQ; In the crystal with PTP1B D181A/Q262A the peptide is seen as the dephosphorylated product; also called JAK3 peptide; source: synthetic peptide) [JAK3 pYpY activation loop peptide]

>  <Endpoint result>
binds

$$$$
>  <Binder>
AIETDKE[pY][pY]TVKDDLD (printed as AIETDKE[pY][pY]TVKDDLD; In the crystal with PTP1B D181A/Q262A the peptide is seen as the dephosphorylated product; also called JAK1 peptide; source: synthetic peptide) [JAK1 pYpY activation loop peptide]

>  <Endpoint result>
binds

$$$$
>  <Binder>
VPEGHE[pY][pY]RVREDGD (printed as VPEGHE[pY][pY]RVREDGD; In the crystal with PTP1B D181A/Q262A the peptide is seen as the dephosphorylated product; source: synthetic peptide) [TYK2 pYpY activation loop peptide]

>  <Endpoint result>
binds

$$$$
>  <Binder>
VLPQDKE[pY][pY]KVKEPGE (printed as VLPQDKE[pY][pY]KVKEPGE; In the crystal with PTP1B D181A/Q262A the peptide is seen as the dephosphorylated product; source: synthetic peptide) [JAK2 pYpY activation loop peptide]

>  <Endpoint result>
binds

$$$$
